Data origin: patent US9809574B2

molecular target: Bcl-2 protein (histag-Bcl-2, UniProtKB P10415) (Homo sapiens (Human), UniProt P10415); test: Inhibition of Bcl-2 by the fluorescence polarisation technique; format: binding; details: fluorescence polarisation test; incubation for 2 hours; read-out: IC50 (nM) Bcl-2 FP
Sequence (P10415 whole entry): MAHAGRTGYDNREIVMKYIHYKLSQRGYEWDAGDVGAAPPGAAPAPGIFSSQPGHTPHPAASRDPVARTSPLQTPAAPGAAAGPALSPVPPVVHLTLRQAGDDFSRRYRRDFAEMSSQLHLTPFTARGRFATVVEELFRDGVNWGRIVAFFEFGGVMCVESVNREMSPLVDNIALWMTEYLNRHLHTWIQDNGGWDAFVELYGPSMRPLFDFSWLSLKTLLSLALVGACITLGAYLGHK
Criterion: IC50 strictly under 4 nM. Met: true. Not met: false.

compound="Cc1c(C(=O)N(C)c2ccc(O)cc2)cc(-c2cc3c(cc2C(=O)N2Cc4ccccc4C[C@H]2C)CN(C(=O)[C@H](O)c2ccccc2)C3)n1C [Example 175]" category_label=false
compound="CCCCN(C(=O)c1cc(-c2cc3c(cc2C(=O)N2Cc4ccccc4C[C@H]2CN2CCOCC2)CN(C(=O)Oc2ccccc2)CC3)n(C)c1C)c1ccc(O)cc1 [Example 187]" category_label=true
compound="Cc1c(C(=O)N(C)c2ccccc2)cc(-c2cc3c(cc2C(=O)N2Cc4ccccc4C[C@H]2CN2CCOCC2)CN(C(=O)Oc2ccc(C#N)cc2)CC3)n1C [Example 152]" category_label=false
compound="C[C@@H]1Cc2ccccc2CN1C(=O)c1cc2c(cc1-c1cc(C(=O)N(C)c3ccc(O)cc3)c3n1CCCC3)CCN(C(=O)Cc1ccc(C#N)cc1)C2 [Example 53]" category_label=true
compound="Cc1c(C(=O)N(C)c2ccc(O)cc2)cc(-c2cc3c(cc2C(=O)N2Cc4ccccc4C[C@H]2C)CN(C(=O)OC2CCCCC2)CC3)n1C [Example 790]" category_label=true
compound="Cc1c(C(=O)N(C)c2ccc(O)cc2)cc(-c2cc3c(cc2C(=O)N2Cc4ccccc4C[C@H]2C)CN(C(=O)Oc2ccc(CCC(=O)N(C)C)cc2)CC3)n1C [Example 804]" category_label=true
compound="C[C@@H]1Cc2ccccc2CN1C(=O)c1cc2c(cc1-c1cc(C(=O)N(C)c3ccc(O)cc3)c3n1CCCC3)CN(C(=O)N(C)C(C)(C)C)C2 [Example 81]" category_label=false
compound="CN(C(=O)c1cc(-c2cc3c(cc2C(=O)N2Cc4ccccc4C[C@H]2CN2CCOCC2)CN(C(=O)Oc2ccc(F)cc2)CC3)n2c1CCCC2)c1ccc(O)cc1 [Example 120]" category_label=true
compound="Cc1c(C(=O)N(C)c2ccc(O)cc2)cc(-c2cc3c(cc2C(=O)N2Cc4ccccc4C[C@H]2C)CN(C(=O)Cc2ccccc2)C3)n1C [Example 80]" category_label=false
compound="C[C@@H]1Cc2ccccc2CN1C(=O)c1cc2c(cc1-c1cc(C(=O)N(C)c3ccc(O)cc3)c3n1CCCC3)CCN(C(=O)Oc1ccc(NCCN(C)C)cc1)C2 [Example 153]" category_label=false
compound="C[C@@H]1Cc2ccccc2CN1C(=O)c1cc2c(cc1-c1cc(C(=O)N(C)c3ccc(O)cc3)c3n1CCCC3)CN(C(=O)COc1cccc(Cl)c1)C2 [Example 50]" category_label=false
compound="Cc1c(C(=O)N(C)c2ccccc2)cc(-c2cc3c(cc2C(=O)N2Cc4ccccc4C[C@H]2CN2CCOCC2)CN(C(=O)Cc2ccccc2)CC3)n1C [Example 117]" category_label=true
compound="CN(C(=O)c1cc(-c2cc3c(cc2C(=O)N2Cc4ccccc4C[C@H]2CN2CCOCC2)CN(C(=O)Oc2ccc(Cl)cc2)CC3)n2c1CCCC2)c1ccc(O)cc1 [Example 122]" category_label=true
compound="Cc1c(C(=O)N(C)c2ccc(O)cc2)cc(-c2cc3c(cc2C(=O)N2Cc4ccccc4C[C@H]2CN2CCOCC2)CN(C(=O)OC2CCCCC2)CC3)n1C [Example 791]" category_label=true
compound="C[C@@H]1Cc2ccccc2CN1C(=O)c1cc2c(cc1-c1cc(C(=O)N(c3ccccc3)c3ccc(O)cc3)c3n1CCCC3)CNC2 [Example 44]" category_label=false
